Experiment: Solubility studies of compound I
Assay type: physicochemical
Conditions: glycofurol, organic solvent or mixture, Glycofurol; read-out: Solubility
endpoint_label: solubility

Prompt: # get_value(readout='solubility', item= "C#CCOc1ccc(Nc2nc(Nc3ccc(C)c(S(N)(=O)=O)c3)ncc2F)cc1" )
Response: > 200 mg/mL

###

Assay: Solubility studies of compound I
Format: physicochemical
Details: polyoxyglyceride (Labrasol), oil or lipid, Polyoxyglyceride (Labrasol); read-out: Solubility
Counter-ions that a name gives are not always drawn.
endpoint_label: solubility (µg/mL)
Please reply with the bare figure in µg/mL and do not write the unit itself.

Prompt: Which solubility value is on record for C#CCOc1ccc(Nc2nc(Nc3ccc(C)c(S(N)(=O)=O)c3)ncc2F)cc1 [Compound I HCl] ?
Response: 1800
